This collection of values is drawn from ChEMBL document CHEMBL3608292.

- Tgt: UniProtKB P09917
- Sequence (P09917 whole entry): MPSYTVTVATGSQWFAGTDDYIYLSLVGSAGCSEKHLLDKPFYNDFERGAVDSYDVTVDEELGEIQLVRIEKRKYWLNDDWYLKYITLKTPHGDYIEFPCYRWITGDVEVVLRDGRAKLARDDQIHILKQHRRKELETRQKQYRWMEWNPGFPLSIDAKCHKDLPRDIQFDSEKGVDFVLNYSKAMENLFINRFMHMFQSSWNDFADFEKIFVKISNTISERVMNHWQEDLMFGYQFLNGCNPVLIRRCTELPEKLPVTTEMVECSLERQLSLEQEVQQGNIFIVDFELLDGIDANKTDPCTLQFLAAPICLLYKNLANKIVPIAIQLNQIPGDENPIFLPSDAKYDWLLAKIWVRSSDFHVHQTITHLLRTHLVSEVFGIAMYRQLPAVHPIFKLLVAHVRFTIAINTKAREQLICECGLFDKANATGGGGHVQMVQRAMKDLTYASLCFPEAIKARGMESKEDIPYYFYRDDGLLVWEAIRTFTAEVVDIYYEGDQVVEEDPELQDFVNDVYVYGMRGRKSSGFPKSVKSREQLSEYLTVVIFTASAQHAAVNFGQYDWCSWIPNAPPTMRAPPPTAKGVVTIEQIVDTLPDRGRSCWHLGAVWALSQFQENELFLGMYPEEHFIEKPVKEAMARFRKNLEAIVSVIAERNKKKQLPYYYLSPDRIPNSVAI
- Protocol Description: Inhibition of recombinant human 5-LO expressed in Escherichia coli BL21 using arachidonic acid as substrate assessed as formation of all-trans isomer of LTB4, 5-H(P)ETE preincubated for 5 to 10 mins followed by substrate addition measured after 10 mins by HPLC analysis
pIC50: −log10 of the molar value.
Attribute Measured: pIC50

- Molecule: "CC(C)C(=O)c1c(O)c(C(C2=C(O)c3ccccc3C2=O)C(C)C)c(O)c(C(C2=C(O)c3ccccc3C2=O)C(C)C)c1O (configuration not stated)"
  pIC50: 4.70

[A] CC(C)CC(C1=C(O)C(C)(C)C(=O)C(C)(C)C1=O)c1c(O)c(C(=O)C(C)C)c(O)c(C(CC(C)C)C2=C(O)C(C)(C)C(=O)C(C)(C)C2=O)c1O (configuration not stated)
[B] CC(C)C(C1=C(O)CC(C)(C)CC1=O)c1c(O)c(C(C2=C(O)CC(C)(C)CC2=O)C(C)C)c(O)c(C(C2=C(O)CC(C)(C)CC2=O)C(C)C)c1O (configuration not stated)
q: So which one has the bigger pIC50 here, A or B ? Choose, then provide that item's label.
a: B
(B: 5.55, A: 5.32)
